# EC50 per record follows
Target: T1, PCSK9-His (UniProt Q8NBP7 31-692)
T1 construct: also called antigen PCSK9-His; Proprotein Convertase Subtilisin/Kexin Type 9; not shown: His tag
T1 sequence (Q8NBP7 31-692 limits assumed): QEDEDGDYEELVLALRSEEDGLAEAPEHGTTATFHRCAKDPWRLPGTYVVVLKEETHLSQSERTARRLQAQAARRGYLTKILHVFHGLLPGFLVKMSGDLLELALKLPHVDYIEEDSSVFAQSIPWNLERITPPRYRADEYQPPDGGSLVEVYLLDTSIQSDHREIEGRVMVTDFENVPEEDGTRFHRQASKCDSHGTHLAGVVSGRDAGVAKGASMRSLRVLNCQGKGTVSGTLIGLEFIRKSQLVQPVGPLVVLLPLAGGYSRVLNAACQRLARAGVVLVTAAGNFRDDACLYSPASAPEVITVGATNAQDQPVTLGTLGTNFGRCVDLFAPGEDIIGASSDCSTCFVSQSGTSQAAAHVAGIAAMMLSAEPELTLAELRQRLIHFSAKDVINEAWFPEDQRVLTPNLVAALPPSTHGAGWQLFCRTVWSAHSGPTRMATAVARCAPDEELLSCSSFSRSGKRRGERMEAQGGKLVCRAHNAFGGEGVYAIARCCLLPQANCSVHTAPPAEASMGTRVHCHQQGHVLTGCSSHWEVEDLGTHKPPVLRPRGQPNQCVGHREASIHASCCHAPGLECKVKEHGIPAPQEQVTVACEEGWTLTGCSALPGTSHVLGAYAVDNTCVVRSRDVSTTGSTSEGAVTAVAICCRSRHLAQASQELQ
Assay: ELISA, PCSK9-His coated, complete antibody titrated, anti-human IgG-HRP
// units = µg/mL; emit number, no label

binder: DFSK9-1 complete antibody (antibody, V domains shown) VH: QVQLVQSGAEVKRPGASVKVSCKASGGTFTNNAISWVRQAPGQGLEWMGRIIPMFGMANYAQKLQGRGTMTTDPSTSTAYMELRSLRSDDTAVYYCAREGIPMIWGQGTTVTVSS VL: DIQMTQSPSSLSASVGDRVTITCRASQSIDNRLTWYQQKPGKAPKLLIYDASSRQSGVPSRFSGSGSGTDFTLTISSLQPEDFATYYCQQPENDPTTFGQGTKVEIK
observed.result: 0.171

binder: DFSK9-17 complete antibody (antibody, V domains shown) VH: QVQLVQSGAEVKKPGASVKVSCKASGYTVTSYGISWVRQAPGQGLEWMGWVSFYNGNSNYAQKLQGRGTMTTDPSTSTAYMELRSLRSDDTAVYYCARGYSLDVWGQGTTVTVSS VL: DIQMTQSPSSLSASVGDRVTITCRASQNINNWLNWYQQKPGKAPKLLIYGASTRPTGVPSRFSGSGSGTDFTLTISSLQPEDFATYYCQQWDDTPNTFGQGTKVEIK
observed.result: 0.0314

binder: DFSK9-16 complete antibody (antibody, V domains shown) VH: QVQLVQSGAEVKKPGASVKVSCKASGYTVTSYGISWVRQAPGQGLEWMGWVSFYQGNTNYAQKLQGRGTMTTDPSTSTAYMELRSLRSDDTAVYYCARGFGMDRWGQGTTVTVSS VL: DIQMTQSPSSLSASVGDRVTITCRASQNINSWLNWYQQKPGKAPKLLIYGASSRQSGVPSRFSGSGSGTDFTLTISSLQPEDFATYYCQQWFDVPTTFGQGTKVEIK
observed.result: 0.0562

Attention now shifts to the item below.
*Q* Any idea what EC50 was measured for DFSK9-13 complete antibody (antibody, V domains shown) VH: QVQLVQSGAEVKKPGASVKVSCKASGYSLTSYGISWVRQAPGQGLEWMGWVSFYQGNTNYAQKLQGRGTMTTDPSTSTAYMELRSLRSDDTAVYYCARGYGMTVWGQGTTVTVSS VL: DIQMTQSPSSLSASVGDRVTITCRASQDVDSWLTWYQQKPGKAPKLLIYGASNLASGVPSRFSGSGSGTDFTLTISSLQPEDFATYYCQQDSKIPLTFGQGTKVEIK ?
*A* 0.0835

src = patent US20210277146A1
